# Target Or Test System: Src Kinase (p60c-Src) (Homo sapiens)
# Sequence (P12931 whole entry): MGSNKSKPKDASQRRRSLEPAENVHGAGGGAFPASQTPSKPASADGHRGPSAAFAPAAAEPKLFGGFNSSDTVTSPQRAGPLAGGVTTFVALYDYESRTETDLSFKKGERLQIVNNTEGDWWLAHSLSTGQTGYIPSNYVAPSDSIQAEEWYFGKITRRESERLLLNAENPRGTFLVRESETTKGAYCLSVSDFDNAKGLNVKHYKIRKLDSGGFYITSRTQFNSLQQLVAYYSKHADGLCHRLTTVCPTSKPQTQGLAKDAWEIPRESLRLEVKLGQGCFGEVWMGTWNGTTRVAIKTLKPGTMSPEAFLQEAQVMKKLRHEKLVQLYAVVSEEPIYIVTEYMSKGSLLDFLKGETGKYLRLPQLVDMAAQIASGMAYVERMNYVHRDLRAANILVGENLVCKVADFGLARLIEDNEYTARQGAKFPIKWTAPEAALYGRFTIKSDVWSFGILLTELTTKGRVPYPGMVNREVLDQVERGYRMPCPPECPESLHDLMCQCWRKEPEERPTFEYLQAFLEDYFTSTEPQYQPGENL
# Assay Explanation: General Assay Method for Src-Kinase (DELFIA time-resolved fluorometry, poly(Glu,Tyr) substrate)
# Condition: Src kinase 1:8000, 100 μM ATP, 15 min. at room temp; read-out: Activity (uMol. Delfia assay. IC50)
Measured Endpoint: IC50 (µM)

See these solved cases before continuing.
molecule="NC(=O)C1CCC(CNC(=O)Nc2ccc(N3CCC(N4CCCCC4)CC3)c(NC(=O)c3cc4ccccc4o3)c2)CC1 (stereo not shown) [Example 19]" unit_tag=µM observed_measurement=22
molecule="N=C(N)c1ccc(C(=O)N(Cc2ccc(-c3ccccc3)cc2)C(Cc2ccc(-c3ccccc3)cc2)C(=O)NCC(N)=O)cc1 (stereo not shown) [Example 7]" unit_tag=µM observed_measurement=13
molecule="CC(C)(C)c1ccc(Oc2cccc(CN(C(=O)c3cccc(C(=N)N)c3)C(CCCNC(=N)N)C(=O)NCC(N)=O)c2)cc1 (stereo not shown) [Example 5]" unit_tag=µM observed_measurement=12.5
molecule="CC(C)C(NS(=O)(=O)c1cc(NC(=O)C2CCCN2)ccc1N1CCC(Cc2ccccc2)CC1)C(N)=O (stereo not shown) [Example 22]" unit_tag=µM observed_measurement=14
molecule="NC(=O)C(Cc1ccc2ccccc2c1)NC(=O)Nc1ccc(N2CCCN(C(=O)C3CCNCC3)CC2)c(NC(=O)CCCc2ccccc2)c1 (stereo not shown) [Example 13]" unit_tag=µM observed_measurement=13

1. NC(=O)C(CCc1ccccc1)NC(=O)Nc1ccc(N2CCN(C3CCCCC3)CC2)c(NC(=O)/C=C/c2ccccc2)c1 (stereo not shown) [Example 10]
2. NC(=O)C1CCC(CNS(=O)(=O)c2cc(NC(=O)C3CCCN3)ccc2N2CCC(Cc3ccccc3)CC2)CC1 (stereo not shown) [Example 25]
INPUT: For the pair 1 and 2 , which entry has the numerically smaller recorded IC50? Output the label that corresponds to your choice.
OUTPUT: 1
(1: 15.5 µM, 2: 27.5 µM)

----------
# Target Or Test System: Src Kinase (p60c-Src) (Homo sapiens)
# Assay Explanation: General Assay Method for Src-Kinase (DELFIA time-resolved fluorometry, poly(Glu,Tyr) substrate)
# Condition: Src kinase 1:8000, 100 μM ATP, 15 min. at room temp; read-out: Activity (uMol. Delfia assay. IC50)
pIC50: −log10 of the molar value.
Measured Endpoint: pIC50

See these solved cases before continuing.
compound="CC(C)(C)c1ccc(Oc2cccc(CN(C(=O)c3cccc(C(=N)N)c3)C(CC3CCCCC3)C(=O)NCC(N)=O)c2)cc1 (stereo not drawn) [Example 2]" measured_endpoint=pIC50 observed_measurement=4.64
compound="NC(=O)C1CCC(CNC(=O)Nc2ccc(N3CCCN(C(=O)C4CCCN4)CC3)c(NC(=O)c3cc4ccccc4o3)c2)CC1 (stereo not drawn) [Example 18]" measured_endpoint=pIC50 observed_measurement=4.72
compound="CC(C)(C)c1ccc(Oc2cccc(CN(C(=O)c3ccc(C(=N)N)cc3)C(Cc3c[nH]c4ccccc34)C(=O)NCC(N)=O)c2)cc1 (stereo not drawn) [Example 6]" measured_endpoint=pIC50 observed_measurement=4.85
compound="NC(=O)C(CC1CCCCC1)NC(=O)Nc1ccc(N2CCCN(C(=O)C3CCNCC3)CC2)c(NC(=O)c2cc3ccccc3o2)c1 (stereo not drawn) [Example 15]" measured_endpoint=pIC50 observed_measurement=5.19

P. NC(=O)C(Cc1ccc2ccccc2c1)NC(=O)Nc1ccc(N2CCN(C3CCCCC3)CC2)c(NC(=O)CCCc2ccccc2)c1 (stereo not drawn) [Example 8]
Q. NC(=O)C(Cc1ccc2ccccc2c1)NC(=O)Nc1ccc(N2CCN(C3CCCCC3)CC2)c(NC(=O)/C=C/c2ccccc2)c1 (stereo not drawn) [Example 9]
INPUT: For the pair P and Q , which entry has the numerically smaller recorded pIC50? Output the label that corresponds to your choice.
OUTPUT: Q
(Q: 4.77, P: 5.07)

Where do the numbers come from? From patent US20030045480A1.
